The values you see were collected from patent US20250250357A1.

Target: T1, human MSLN-R1-his protein (human, UniProt Q13421 296-390)
T1 construct: Region 1 of human mesothelin, made in HEK293E cells, His-tagged; also called human MSLN-R1 protein; hMSLN-R1-his; not shown: His tag
T1 chain: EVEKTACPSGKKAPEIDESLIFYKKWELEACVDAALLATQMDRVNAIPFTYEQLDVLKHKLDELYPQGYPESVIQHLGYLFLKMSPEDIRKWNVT
Experiment: ELISA on coated MSLN-R1; antibody 0.0001 nM
We begin with a simple list: items and their reported OD450.
Express it in OD450; write the number only.

As a guide, the following entries are already answered.
S009-F8-5.15 (antibody, human IgG1, kappa, V domains shown) VH: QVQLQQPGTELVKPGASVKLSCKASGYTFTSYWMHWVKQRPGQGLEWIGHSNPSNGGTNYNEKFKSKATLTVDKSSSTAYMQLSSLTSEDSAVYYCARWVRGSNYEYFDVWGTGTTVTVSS VL: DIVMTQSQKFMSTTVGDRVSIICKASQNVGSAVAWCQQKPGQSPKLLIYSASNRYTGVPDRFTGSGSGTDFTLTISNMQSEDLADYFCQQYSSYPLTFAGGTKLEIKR; 0.04
S009-F8-4.5 (antibody, human IgG1, kappa, V domains shown) VH: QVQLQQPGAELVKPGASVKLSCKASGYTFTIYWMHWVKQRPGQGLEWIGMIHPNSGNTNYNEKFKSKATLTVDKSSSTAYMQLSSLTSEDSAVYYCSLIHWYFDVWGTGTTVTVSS VL: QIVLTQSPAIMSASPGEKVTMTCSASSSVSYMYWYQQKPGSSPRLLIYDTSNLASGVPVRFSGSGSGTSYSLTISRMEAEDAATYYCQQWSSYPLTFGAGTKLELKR; 0.05

Continue with the binder presented below.
For reference, reported OD450 for S009-F8-9.16 (antibody, human IgG1, kappa, V domains shown) VH: EVHLQQSGPVLVKPGASVKMSCKASGYTFTDYFMNWVKQSHGKSLEWIGVINPHNGYVNYNQKFQGRATLTVDKSSSTVYMELNSLTSEDSAVYHCARSAESAWFAYWGQRTLVTVSA VL: DVLMTQTPLSLPVSLGDQVSISCRSSQSIVHVKGNTYLEWYLQKPGQSPELLIYKVSNRFSGVPDRFSGGGSGTDFTLKISRVEPEDLGVYYCFQGSHLPYTFGGGTKLEIKR stands at 0.04
